These entries and their values trace back to PubChem BioAssay AID1159580.

assay.summary: chemical genetic growth profiling, strain panel (AID 1159580);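 note: tested at 20 µM; growth read once vehicle control cultures reached saturation at 30 °C; 1 = growth at the plate median or of vehicle wells; lower values mean less growth of the strain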
condition.context: S. cerevisiae deletion strains, growth OD, locus YOL012C, strain htz1
Hit rate of the full screen: of about 5,500 compounds, about 2,000 (36%) were called active. Roughly 18% stayed inconclusive and do not appear here. This is one part of the list.
In this section we review reported normalized growth values for a set of compounds.
# respond with the number and nothing more

See these solved cases before continuing.
>>> observed("O=C(Cn1ccnc1[N+](=O)[O-])NCCO")
0.906
>>> observed("NC(N)=NS(=O)(=O)c1ccc(N)cc1")
0.841

Reported normalized growth for CC1(C)O[C@@H]2CC3C4CCC5=CC(=O)CCC5(C)C4(F)C(O)CC3(C)[C@]2(C(=O)CCl)O1 (stereo partly specified) : what is it?
0.917

Next entry: CC1(C)C2CC(=O)[C@]3(C)C(CC[C@@]4(C)[C@H](c5ccoc5)OC(=O)[C@H]5O[C@]543)[C@@]2(C)C=C[C@@H]1O (stereo partly specified)
1.21

Same thing, different compound: CC1(C)NC(=O)N(c2ccc([N+](=O)[O-])c(C(F)(F)F)c2)C1=O
0.756

Likewise for COc1c(OC)c2occc2c2oc(=O)ccc12 ?
0.5

Next up: CCC(C)c1cnc(CC(C)C)c(=O)n1O (stereo unspecified)
0.477

What do you have for CC(C)C(=O)Nc1ccc([N+](=O)[O-])c(C(F)(F)F)c1 ?
1.09

What do you have for O=C1[C@H](CCC(O)c2ccc(F)cc2)[C@@H](c2ccc(O)cc2)N1c1ccc(F)cc1 (stereo partly specified) ?
1.05

###

assay.summary: chemical genetic growth profiling, strain panel (AID 1159580)
condition.context: S. cerevisiae deletion strains, growth OD, locus YPL256C, strain CLN2, hits give low values
Hit rate of the full screen: of about 5,500 compounds, about 2,000 (36%) were called active. Roughly 18% stayed inconclusive and do not appear here. The list shows a part of the results.
Consider the reported normalized growth of an entry and match it to a band in I: < 0.9; II: ≥ 0.9 and < 1; III: ≥ 1

Recorded results for 5 compounds are shown here.
>>> cat("Cc1c(S(=O)(=O)O)oc2c1C(=O)C(=O)c1c-2ccc2c1CCCC2(C)C")
"II"
>>> cat("CCCCCCCCCCCC(=O)NOC(=O)c1c(-c2c(Cl)cccc2Cl)noc1C")
"I"
>>> cat("Cc1cccc2c3c(ccc12)C1=C(C(=O)C3=O)C(C)CO1 (stereo not drawn)")
"I"
>>> cat("CC(=O)OC1CCC2(C)C(=CC=C3C2CCC2(C)C3CCC2C(C)/C=C/C(C)C(C)C)C1(C)C (stereo not drawn)")
"III"
>>> cat("C=C1C(=O)O[C@@H]2C[C@@]3(C)CCC[C@H](C)C3=C[C@H]12")
"II"

Please let me know in which category the item Cc1c(-c2ccnn2C(=O)c2ccco2)cnn1-c1ccccc1 belongs.
I

Repeat for the following compound: Cc1onc(-c2c(F)cccc2Cl)c1C(=O)NNc1cc(Cl)cc(Cl)c1
I

Now this one: C[C@@H]1C(=O)OC2[C@H](O)C34[C@@H]5OC(=O)[C@@]3(O[C@@H]3OC(=O)[C@H](O)[C@@]34[C@H](C(C)(C)C)[C@H]5O)[C@]21O (stereo partly drawn)
III

What about this compound? C=C1CCC(C2CC(=O)OC2=O)C(=O)CCC2C1CC2(C)C (stereo not drawn)
II

Same again, this time with C[C@H]1COC2=C1C(=O)C(=O)c1c2ccc2c1CCCC2(C)C
I

Also check Cc1c(Cl)cccc1Nc1ccccc1C(=O)O
I

###

assay.summary: chemical genetic growth profiling, strain panel (AID 1159580)
condition.context: S. cerevisiae deletion strains, growth OD, locus YGR040W, strain KSS1, hits give low values
Among all 5,500 compounds or so, about 2,000 (36%) were called active. About 18% were inconclusive and are not listed. Some of the results follow.
1.0 if normalized growth is below 0.9. 0.0 if not; exact matches included in 0.0.

Answered examples (3):
>>> cat("Cc1nc(-c2ccc(S(=O)(=O)Nc3ccc(Br)cc3Cl)s2)cs1")
1.0
>>> cat("OC(=Cc1nc2ccccc2nc1C=C(O)c1ccc(Cl)cc1)c1ccc(Cl)cc1")
1.0
>>> cat("O=C(Nc1ccc(Cl)cc1)OCCSc1nc2ccccc2s1")
0.0

Regarding O=C(/C=C/Sc1nc2ccccc2s1)c1ccc(Cl)cc1 , kindly confirm whether its normalized growth is beneath 0.9.
0.0

Ok, now Cc1ccc(NC(=O)c2ccccc2N=Cc2cc(Cl)cc(Cl)c2O)c(N=Cc2cc(Cl)cc(Cl)c2O)c1
1.0

###

assay.summary: chemical genetic growth profiling, strain panel (AID 1159580);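 note: tested at 20 µM; growth read once vehicle control cultures reached saturation at 30 °C; 1 = growth at the plate median or of vehicle wells; lower values mean less growth of the strain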
condition.context: S. cerevisiae deletion strains, growth OD, locus YAL013W, strain DEP1
Screen size: about 5,500 compounds; about 2,000 (36%) were called active. Not shown: some 18% with an inconclusive outcome. No stated cut-off is given here; in the data, active means normalized growth mostly below about 0.91 (no sharp cut-off); inconclusive means no clear call, values can overlap the other calls; inactive means mostly above about 0.92. The list shows a part of the results.
Use one of these outcomes when replying: active, inactive

I would be grateful if you could indicate the recorded call for c1ccc(-c2cc3c(nn2)CCc2nonc2-3)cc1 .
inactive

For CCN(CC)CCNC(=O)c1c(-c2c(Cl)cccc2Cl)noc1C then?
inactive

What do you get for Cc1ccc(NC(=S)NCCO)c(C)c1 ?
inactive

Another: CC(C)NNC(=O)c1ccncc1
inactive

What do you get for Cc1cc(-c2ccccc2)nnc1NCCN1CCOCC1 ?
inactive

Now consider CC(/C=N\O)=N/Nc1ccccc1 .
inactive

And the next one, NC[C@@H]1CC[C@@H](N)[C@@H](O[C@H]2[C@H](O)[C@@H](O[C@H]3O[C@H](CO)[C@@H](O)[C@H](N)[C@H]3O)[C@H](N)C[C@@H]2N)O1 ?
inactive

How about C=C1C(C)C2C(Cc3ccccc3)NC(=O)C23OC(=O)/C=C/C(=O)CCCC(C)C/C=C/C3C1O (stereo unspecified) ?
inactive

Can you handle C=C1C(=O)O[C@@H]2C[C@@]3(C)CCC[C@H](C)C3=C[C@H]12 next?
inactive

Param item: O=[N+]([O-])c1ccc2c(c1)NC(c1ccc([N+](=O)[O-])s1)O2 (stereo unspecified)
active

Please answer likewise for COCCCNC(=S)Nc1ccc(C)cc1C
inactive

###

Measured normalized growth by item
assay.summary: chemical genetic growth profiling, strain panel (AID 1159580);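 note: tested at 20 µM; growth read once vehicle control cultures reached saturation at 30 °C; 1 = growth at the plate median or of vehicle wells; lower values mean less growth of the strain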
condition.context: S. cerevisiae deletion strains, growth OD, locus YNL209W, strain ssb2, hits give low values
Out of some 5,500 compounds screened, about 2,000 (36%) were called active. Not shown: some 18% with an inconclusive outcome. The list shows a part of the results.
Format: numeric value only, no unit, no commentary.

Look over these answered cases.
>>> observed("O=c1cc(-c2ccccc2O)oc2cc(O)ccc12")
0.996
>>> observed("C=C1CCC(C2CC(=O)OC2=O)C(=O)CCC2C1CC2(C)C (configuration not stated)")
1
>>> observed("C=C1CCC2C(CC2(C)C)C(=C)CC/C1=N\\O (configuration not stated)")
1
>>> observed("O=C(O)CN1C(=O)c2cccc3cccc(c23)C1=O")
0.986
>>> observed("CC1(C)NC(=O)N(c2ccc([N+](=O)[O-])c(C(F)(F)F)c2)C1=O")
0.988
>>> observed("CC(C)C(=O)Nc1ccc([N+](=O)[O-])c(C(F)(F)F)c1")
1.01
>>> observed("C=C1CCC2C(CC2(C)C)C(=O)CCC1O (configuration not stated)")
0.987
>>> observed("NC(N)=NS(=O)(=O)c1ccc(N)cc1")
0.993

Record request: normalized growth value, item CC1=CC2C(CC1=O)C(C)=CCC2C(C)C (configuration not stated)
1.01

Try this compound next: CC(=O)Oc1c(C)cccc1C(=O)O
1.01

Another compound to look at: C=C1CCC(OC(C)=O)/C(C)=C/C[C@@H]2[C@@H]1CC2(C)C (some centres not stated)
1.02

Record: C[C@H]1CC[C@@H](C(C)(C)O)CC2=C1CC[C@@H]2C
0.995

###

assay.summary: chemical genetic growth profiling, strain panel (AID 1159580);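 note: tested at 20 µM; growth read once vehicle control cultures reached saturation at 30 °C; 1 = growth at the plate median or of vehicle wells; lower values mean less growth of the strain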
condition.context: S. cerevisiae deletion strains, growth OD, locus YHR142W, strain chs7, hits give low values
The campaign covered roughly 5,500 compounds. About 2,000 (36%) were called active. Roughly 18% stayed inconclusive and do not appear here. Some of the results follow.
# normalized growth annotations
Give the figure by itself; no unit, no explanation.

Worked examples follow.
>>> observed("CCCCOC(=O)c1ccccc1C(=O)OCCCC")
0.944
>>> observed("C[C@@H]1C(=O)OC2[C@H](O)C34[C@@H]5OC(=O)[C@@]3(O[C@@H]3OC(=O)[C@H](O)[C@@]34[C@H](C(C)(C)C)[C@H]5O)[C@]21O (some centres not stated)")
0.956

Give the measured normalized growth of O=c1cc(-c2ccccc2O)oc2cc(O)ccc12 .
0.965

Okay, and CCN(CC)CCOC(=O)c1ccc(N)cc1 ?
0.972

For C#CCCCCCCCCCCCC(O)CC(O)CO (configuration not stated) then?
0.96

Now try CCCCOC(=O)c1ccc(N)cc1 .
0.495

Would you mind doing C#CCCCCCCCCCCCC(=O)CC(O)COC(C)=O (configuration not stated) as well?
0.884

Next record, please: CC(C(=O)O)c1ccc(C(=O)c2cccs2)cc1 (configuration not stated)
0.995

Same question for Cc1cc(-c2ccccc2)nnc1NCCN1CCOCC1 please.
0.981

Subsequent entry: CCCOc1ccc(C(=O)OCCN(CC)CC)cc1N
0.981

One more compound: CC(=O)N[C@@H](CS)C(=O)O
1.02

Item: CCCCCCOc1ccccc1C(N)=O
0.692
